Hey, just so you know, these numbers are from patent US10556905B2.

Molecular target: OXA-2 (Escherichia coli)
Construct: AmpC, TEM-1, KPC-2 or OXA-2 domain excluding signal peptide was amplified with PCR; made in house; host or cells: Escherichia coli BL21 (DE3), pET-28b(+)
Sequence (P0A1V9 22-275): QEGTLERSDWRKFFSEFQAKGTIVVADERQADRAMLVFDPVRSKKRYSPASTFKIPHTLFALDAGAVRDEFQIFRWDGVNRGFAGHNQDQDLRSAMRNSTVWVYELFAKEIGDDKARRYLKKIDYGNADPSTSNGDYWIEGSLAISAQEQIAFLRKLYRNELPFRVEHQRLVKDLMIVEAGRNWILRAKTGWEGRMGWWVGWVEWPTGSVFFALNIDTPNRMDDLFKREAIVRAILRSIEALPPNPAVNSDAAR
Experiment: biochemical
Set-up: species or system P. aeruginosa
Consider the following compounds; for each one, report its IC50.

Problem: Look up and state reported IC50 for CC(=O)N(C)NC(=O)[C@@H]1CC[C@@H]2CN1C(=O)N2OS(=O)(=O)O (racemic)
Result: > 10 µM

Problem: Entry CC(C)C(=O)NNC(=O)[C@@H]1CC[C@@H]2CN1C(=O)N2OS(=O)(=O)O needs its IC50 filled in; supply it.
Result: 3 to 10 µM

Problem: Give the reported value of IC50 for this record: O=C(NNC(=O)[C@@H]1CC[C@@H]2CN1C(=O)N2OS(=O)(=O)O)c1ccncc1
Result: 1 to 3 µM

Problem: Dear colleague, please send me the reported IC50 for O=C(NOCCN1CCCC1=O)[C@@H]1CC[C@@H]2CN1C(=O)N2OS(=O)(=O)O when you can.
Result: 0.1 to 1 µM

Problem: Provide only the value of recorded IC50 for CN(C)C(=O)NNC(=O)[C@@H]1CC[C@@H]2CN1C(=O)N2OS(=O)(=O)O
Result: 3 to 10 µM

Problem: Write down IC50 measured for item CCOC(=O)NNC(=O)[C@@H]1CC[C@@H]2CN1C(=O)N2OS(=O)(=O)O
Result: 1 to 3 µM

Problem: Return value of IC50 for input O=C(NNC(=O)N1CCOCC1)[C@@H]1CC[C@@H]2CN1C(=O)N2OS(=O)(=O)O , no commentary.
Result: 3 to 10 µM

Problem: Provide only the value of recorded IC50 for COCCONC(=O)[C@@H]1CC[C@@H]2CN1C(=O)N2OS(=O)(=O)O
Result: 1 to 3 µM

Problem: Please report the measured IC50 for CN(C)C(=O)CONC(=O)[C@@H]1CC[C@@H]2CN1C(=O)N2OS(=O)(=O)O
Result: 0.1 to 1 µM

Problem: Identify IC50 associated with the compound O=C(NNC(=O)[C@@H]1CC[C@@H]2CN1C(=O)N2OS(=O)(=O)O)C1CCOCC1
Result: 3 to 10 µM

Problem: Given the compound O=C(NOCCN1CCOCC1)[C@@H]1CC[C@@H]2CN1C(=O)N2OS(=O)(=O)O , write its reported IC50.
Result: 0.1 to 1 µM

Problem: // fetch IC50 given entry CS(=O)(=O)NNC(=O)[C@@H]1CC[C@@H]2CN1C(=O)N2OS(=O)(=O)O
Result: 0.1 to 1 µM

Problem: Read off the recorded IC50 for O=C([C@@H]1CC[C@@H]2CN1C(=O)N2OS(=O)(=O)O)N1CCCO1
Result: 0.1 to 1 µM

Problem: Please give the documented IC50 of O=C(NOCCO)[C@@H]1CC[C@@H]2CN1C(=O)N2OS(=O)(=O)O
Result: 1 to 3 µM

Problem: # return recorded IC50 for input O=C(NNC(=O)[C@@H]1CC[C@@H]2CN1C(=O)N2OS(=O)(=O)O)c1cocn1
Result: 1 to 3 µM

Problem: Using the record for COC(=O)NNC(=O)[C@@H]1CC[C@@H]2CN1C(=O)N2OS(=O)(=O)O , state its measured IC50.
Result: 1 to 3 µM

Problem: Hello, please tell me recorded IC50 for this one: O=C(NNC(=O)[C@@H]1CC[C@@H]2CN1C(=O)N2OS(=O)(=O)O)Nc1ccccc1 (racemic)
Result: 3 to 10 µM

Problem: Provide one value: measured IC50 of O=C(NN1CCOCC1)[C@@H]1CC[C@@H]2CN1C(=O)N2OS(=O)(=O)O (racemic)
Result: 3 to 10 µM

Problem: For the compound O=C(NNC(=O)[C@@H]1CC[C@@H]2CN1C(=O)N2OS(=O)(=O)O)c1ccco1 , report IC50.
Result: 1 to 3 µM

Problem: Quickly give me recorded IC50 for O=C(NOCCn1cccc1)[C@@H]1CC[C@@H]2CN1C(=O)N2OS(=O)(=O)O
Result: 0.1 to 1 µM

Problem: Read the entry CN(NC(=O)[C@@H]1CC[C@@H]2CN1C(=O)N2OS(=O)(=O)O)C(=O)OC(C)(C)C (racemic) and write its reported IC50.
Result: 1 to 3 µM

Problem: Return the recorded IC50 value; entry: CCN(CC)C(=O)NNC(=O)[C@@H]1CC[C@@H]2CN1C(=O)N2OS(=O)(=O)O
Result: 3 to 10 µM

Problem: Consider the compound O=C(NOCC(=O)N1CCOCC1)[C@@H]1CC[C@@H]2CN1C(=O)N2OS(=O)(=O)O . State its measured IC50.
Result: 0.1 to 1 µM

Problem: Supply measured IC50 of O=C1CC[C@H](C(=O)NNC(=O)[C@@H]2CC[C@@H]3CN2C(=O)N3OS(=O)(=O)O)N1 in your reply.
Result: 1 to 3 µM

Problem: Identify measured IC50 corresponding to CN(C)NC(=O)[C@@H]1CC[C@@H]2CN1C(=O)N2OS(=O)(=O)O (racemic)
Result: 3 to 10 µM

Problem: Using the record for CC(=O)NNC(=O)[C@@H]1CC[C@@H]2CN1C(=O)N2OS(=O)(=O)O , state its measured IC50.
Result: 1 to 3 µM

Problem: Hello, please tell me recorded IC50 for this one: CONC(=O)[C@@H]1CC[C@@H]2CN1C(=O)N2OS(=O)(=O)O
Result: 1 to 3 µM

Problem: Indicate the recorded IC50 value for this compound: COCC(=O)NNC(=O)[C@@H]1CC[C@@H]2CN1C(=O)N2OS(=O)(=O)O
Result: 3 to 10 µM

Problem: Supply measured IC50 of O=C(NNC(=O)[C@@H]1CC[C@@H]2CN1C(=O)N2OS(=O)(=O)O)c1cccnc1 in your reply.
Result: 1 to 3 µM

Problem: State its IC50: O=C(NOCC1CCC1)[C@@H]1CC[C@@H]2CN1C(=O)N2OS(=O)(=O)O
Result: 0.1 to 1 µM

Problem: Supply IC50 value. Item: O=C(NN1CCCC1=O)[C@@H]1CC[C@@H]2CN1C(=O)N2OS(=O)(=O)O (racemic)
Result: 3 to 10 µM

Problem: Query IC50 for CCC(=O)NNC(=O)[C@@H]1CC[C@@H]2CN1C(=O)N2OS(=O)(=O)O
Result: 3 to 10 µM

Problem: Input O=C1CC[C@@H](C(=O)NNC(=O)[C@@H]2CC[C@@H]3CN2C(=O)N3OS(=O)(=O)O)N1 , output reported IC50.
Result: 3 to 10 µM
